Parameter: DC50. Scope: all listed entries.
# target.of.assay: HiBit-KRAS^G12C (Homo sapiens, UniProt P01116, G12C)
# Sequence (P01116 1-186 isoform P01116-2 G12C limits assumed): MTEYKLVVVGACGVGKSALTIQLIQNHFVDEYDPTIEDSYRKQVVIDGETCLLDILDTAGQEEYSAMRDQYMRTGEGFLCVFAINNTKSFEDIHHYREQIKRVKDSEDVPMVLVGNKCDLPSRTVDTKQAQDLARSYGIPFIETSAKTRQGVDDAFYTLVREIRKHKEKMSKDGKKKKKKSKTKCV
# test.description: HiBit degradation assay in SW1573 HiBit-KRas^G12C cells
# Assay type: cell-based
# Set-up: expressed in transfected cells; host or cells: SW1573 (clone E6), modified pcDNA3.1 vector, TK promoter
# experimental.parameters: SW1573 HiBit-KRas^G12C, 0.1% DMSO, 24 hours; read-out: KRas^G12C-HIBit (SW1573; 0.1% DMSO) DC50*

Some compounds with recorded DC50:
C=CC(=O)N1CCN(c2nc(O[C@H](C)CN3CCC(CCCN4CCN(CC(=O)N[C@H](C(=O)N5C[C@H](O)C[C@H]5C(=O)N[C@@H](C)c5ccc(-c6scnc6C)cc5)C(C)(C)C)CC4)CC3)nc3c(F)c(-c4cc(O)cc5ccccc45)c(Cl)cc23)CC1 [Compound 56]; > 1000 nM
C=CC(=O)N1CCN(c2nc(OCCN3CCC(OCCOCC(=O)N[C@H](C(=O)N4C[C@H](O)C[C@H]4C(=O)N[C@@H](C)c4ccc(-c5scnc5C)cc4)C(C)(C)C)CC3)nc3c(F)c(-c4cc(O)cc5ccccc45)c(Cl)cc23)CC1 [Compound 66]; 100 to 1000 nM
C=CC(=O)N1CCN(c2nc(OCCN3CCC(OCCOc4cc([C@H](C(=O)N5C[C@H](O)C[C@H]5C(=O)N[C@@H](C)c5ccc(-c6scnc6C)cc5)C(C)C)on4)CC3)nc3c(F)c(-c4cc(O)cc5ccccc45)c(Cl)cc23)C[C@@H]1CC#N (atropisomer, axis not shown) [Compound 3]; < 100 nM
C=CC(=O)N1CCN(c2nc(O[C@H](C)CN3CCC(COc4cc([C@H](C(=O)N5C[C@H](O)C[C@H]5C(=O)N[C@@H](C)c5ccc(-c6scnc6C)cc5)C(C)C)on4)CC3)nc3c(F)c(-c4cc(O)cc5ccccc45)c(Cl)cc23)CC1 [Compound 19]; > 1000 nM
C=CC(=O)N1CCN(c2nc(O[C@H](C)CN3CCC(OCCOCC(=O)N[C@H](C(=O)N4C[C@H](O)C[C@H]4C(=O)N[C@@H](C)c4ccc(-c5scnc5C)cc4)C(C)(C)C)CC3)nc3c2CCN(c2cccc4ccccc24)C3)C[C@@H]1CC#N [Compound 58]; > 1000 nM

Task: // fetch HiBit-KRAS^G12C (Homo sapiens, UniProt P01116, G12C) DC50 for C=CC(=O)N1CCN(c2nc(O[C@H](C)CN3CCC(OCCOCCOCCOc4cc(-c5scnc5C)ccc4CNC(=O)[C@@H]4C[C@@H](O)CN4C(=O)[C@H](c4cc(C)no4)C(C)C)CC3)nc3c(F)c(-c4cc(O)cc5ccccc45)c(Cl)cc23)CC1 [Compound 69]
Output: 100 to 1000 nM

Task: Moving on to C=CC(=O)N1CCN(c2nc(O[C@H](C)CN3CCC(OCCOCC(=O)N[C@H](C(=O)N4C[C@H](O)C[C@H]4C(=O)N[C@@H](C)c4ccc(-c5scnc5C)cc4)C(C)(C)C)CC3)nc3c(F)c(-c4cc(O)cc5ccccc45)c(Cl)cc23)C[C@@H]1CC#N [Compound 33]
Output: 100 to 1000 nM

Task: Moving on to C=CC(=O)N1CCN(c2nc(O[C@H](C)CN3CCC(OCCOCCOCCOCCOCCOc4cc(-c5scnc5C)ccc4CNC(=O)[C@@H]4C[C@@H](O)CN4C(=O)[C@@H](c4cc(C)no4)C(C)C)CC3)nc3c(F)c(-c4cc(O)cc5ccccc45)c(Cl)cc23)CC1 [Compound 80]
Output: > 1000 nM

Task: Moving on to C=CC(=O)N1CCN(c2nc(O[C@H](C)CN3CCC(OCCOCCOCCOCCOCCOCCOCCOCCOCCOCCOCC(=O)N[C@H](C(=O)N4C[C@H](O)C[C@H]4C(=O)N[C@@H](C)c4ccc(-c5scnc5C)cc4)C(C)(C)C)CC3)nc3c(F)c(-c4cc(O)cc5ccccc45)c(Cl)cc23)CC1 [Compound 83]
Output: > 1000 nM

Task: Moving on to C=CC(=O)N1CCN(c2nc(O[C@H](C)CN3CCC(OCCOCCOc4cc(-c5scnc5C)ccc4CNC(=O)[C@@H]4C[C@@H](O)CN4C(=O)[C@@H](c4cc(C)no4)C(C)C)CC3)nc3c(F)c(-c4cc(O)cc5ccccc45)c(Cl)cc23)CC1 [Compound 72]
Output: > 1000 nM
